Taken from PubChem BioAssay (NCI).

System: OVCAR-8 ovarian
Run description: NCI-60 one-dose screen, 48 h (100 = growth as untreated, 0 = no growth, -100 = all killed)
Condition details: 10 µM unless noted
About 83,000 compounds went through this panel and 20% of them were active in at least one assay; those are over-represented in the sample as a whole.
Listed next: entries and their corresponding growth.

{"columns": ["Compound", "Experimental system", "growth, %"],
 "data": [
  ["COc1ccc([C@@H]2[C@@H](O)C(=O)N2c2cc(OC)c(OC)c(OC)c2)cc1Cl", "OVCAR-8 ovarian", -11.7],
  ["COc1cc(-c2noc(C[C@@H](NC(=O)OCc3ccccc3)C(C)C)n2)cc(OC)c1OC", "OVCAR-8 ovarian", 100],
  ["Oc1ccc(CSc2nnc(-c3ccccc3)o2)c2cccnc12", "OVCAR-8 ovarian", 17.5],
  ["CN1CCN(c2ccc(C(=O)Nc3cccc(-c4cn(-c5ccc(S(N)(=O)=O)cc5)nn4)c3)cc2C(F)(F)F)CC1", "OVCAR-8 ovarian", 86.7],
  ["Cn1cc2c(c1)-c1c(sc3nc(-c4ccc(NC(=O)Nc5cc(C(C)(C)C)on5)cc4)cn13)CC2", "OVCAR-8 ovarian", 53.8],
  ["CC1OC(O[C@@H]2[C@H](O)C(CO)OC(O[C@H]3COC(O[C@H]4CC[C@]5(C)[C@H]6CC[C@]78OC[C@@]9(CCC(C)(C)C[C@H]97)[C@H](O)C[C@@]8(C)[C@]6(C)CC[C@H]5C4(C)C)[C@@H](OC4OC(CO)[C@@H](O)[C@@H](O)[C@@H]4O)[C@@H]3O)[C@H]2OC2OC[C@@H](O)[C@@H](O)[C@@H]2O)[C@@H](O)[C@@H](O)[C@H]1O (stereo not given in full)", "OVCAR-8 ovarian", -69],
  ["O=C1[C@@H]2Cc3c([nH]c4ccccc34)[C@H](c3c(Cl)cccc3Cl)N2C(=O)CN1C1CCN(Cc2ccccc2)CC1", "OVCAR-8 ovarian", 47.7],
  ["Cc1ccc(Cc2cnc(NC(=O)/C(C#N)=C/c3ccc(-c4ccc(Cl)cc4)o3)s2)cc1", "OVCAR-8 ovarian", 97.9],
  ["COc1cc(/C=C/C(=O)c2ccc(NC(=O)CSc3nnc(-c4ccc5nc(-c6ccccc6)[nH]c5c4)o3)cc2)cc(OC)c1OC", "OVCAR-8 ovarian", 97.1],
  ["O=C(NNc1nc2cc(F)cc(F)c2n2cccc12)c1ncccn1", "OVCAR-8 ovarian", 16.7],
  ["COc1ccc(-c2nn(-c3ccccc3)cc2/C=C/C(=O)c2ccc(NC(=O)CCCCCCC(=O)NO)cc2)cc1", "OVCAR-8 ovarian", 99.7],
  ["COc1cc(O)c2c(c1)/C=C/C[C@H](O)[C@H](O)C(=O)/C=C\\C[C@H](C)OC2=O", "OVCAR-8 ovarian", 19.9],
  ["CCCC(=O)NC(c1cccnc1)c1ccc2c(C)ccnc2c1O (stereo not given)", "OVCAR-8 ovarian", 21.1],
  ["CCNC(=O)Oc1ccc(/C(=C(/C)c2ccccc2)c2ccc(OCCN3CCCC3)cc2)cc1", "OVCAR-8 ovarian", 89.5],
  ["COc1cc(C(=O)c2cc(C(C)=O)c3c4ccccc4ccn23)cc(OC)c1OC", "OVCAR-8 ovarian", 62.9]
]}
